System: COLO 829
assayProtocol: Cell proliferation assay (ATPlite), drug with vs without cobicistat
Format: cell-based
conditionSummary: COLO 829 cell line; 120 hours incubation
Protocol: All cell lines were obtained from the American Type Culture Collection (ATCC) Manassas, Va. (US). Master and working cell banks (MCB and WCB) were prepared by subculturing in ATCC-recommended media and freezing protocols (www.atcc.org). Cell line stocks for the assays were prepared from the WCB. […] IC50s were calculated by non-linear regression using IDBS XLfit 5. The percentage growth after 120 h (%-growth) was calculated as follows: 100%×(luminescencet=120h/luminescenceuntreated,t=120h). […]
So basically: is Fold change in IC50 (IC50 [Drug + Cobicistat]/IC50 [Drug]) under 4 fold? Then rule met. Not under? Then rule not met.

Below are worked cases with known answers.
- compound: "CC[C@]1(O)C[C@@H]2CN(CCc3c([nH]c4ccccc34)[C@@](C(=O)OC)(c3cc4c(cc3OC)N(C)[C@H]3[C@@](O)(C(=O)OC)[C@H](OC(C)=O)[C@]5(CC)C=CCN6CC[C@]43[C@@H]65)C2)C1 [vinblastine]"
  assignedLabel: "rule not met"
- compound: "CC[C@]1(O)C[C@H]2CN(CCc3c([nH]c4ccccc34)[C@@](C(=O)OC)(c3cc4c(cc3OC)N(C=O)[C@H]3[C@@](O)(C(=O)OC)[C@H](OC(C)=O)[C@]5(CC)C=CCN6CC[C@]43[C@@H]65)C2)C1 [vincristine]"
  assignedLabel: "rule not met"
- compound: "COc1cccc2c1C(=O)c1c(O)c3c(c(O)c1C2=O)C[C@@](O)(C(=O)CO)C[C@@H]3O[C@H]1C[C@H](N)[C@H](O)[C@H](C)O1 [doxorubicin]"
  assignedLabel: "rule met"

Quick check: does CC(=O)O[C@@]12CO[C@@H]1C[C@H](O)[C@@]1(C)C(=O)[C@H](O)C3=C(C)[C@@H](OC(=O)[C@H](O)[C@@H](NC(=O)OC(C)(C)C)c4ccccc4)C[C@@](O)([C@@H](OC(=O)c4ccccc4)[C@H]21)C3(C)C [docetaxel] have Fold change in IC50 (IC50 [Drug + Cobicistat]/IC50 [Drug]) under 4 fold?
rule met

src = patent US20180036289A1
